test system: COLO 205 colon; assay: NCI-60 one-dose screen, 48 h (100 = growth as untreated, 0 = no growth, -100 = all killed); conditions: 10 µM unless noted
This is part of a sample that, as a whole, favours compounds with a hit. Of some 83,000 tested, about 20% had one in any assay.
Threshold rule: growth greater than or equal to 60% is Condition met; below that, Condition not met.

Determine whether measured growth meets or exceeds 60% for "CCOC(=O)Nc1cccc(-n2cnc3cc(-c4ccc(O)cc4)ccc32)c1"
Condition not met

# bool: growth of "CCOC(=O)c1ccc(N/C=C/C(=O)c2ccccc2)cc1" >= 60%
Condition met

Continuing:
Confirm if growth reported for the compound "C(=C(\C1=NCCN1)n1cnc2ccccc21)/c1cccc2ccccc12" is 60% or above.
Condition met

Given the entry C#CCOc1ccc(C(Nc2cc(Cl)ccc2Cl)c2nnnn2C2CCCCC2)cc1 (stereo not drawn) , answer whether its growth meets or surpasses 60%.
Condition met

Reported growth reaches at least 60% for "Cn1cc(-c2nn3c(=O)cc(-c4ccccc4)nc3s2)c2cc(F)ccc21" ?
Condition not met

Threshold query (growth >= 60%) on "COc1ccc(Cn2cc3c(c2-c2ccccc2)CCCc2cnoc2-3)cc1[N+](=O)[O-]"
Condition not met

Threshold query (growth >= 60%) on "N#Cc1c(-c2ccccc2)cc(-c2c[nH]c3ccccc23)nc1-c1c[nH]c2ccccc12"
Condition met

Answer whether growth of "Cc1cn(-c2cc(NC(=O)c3cncc(C#Cc4cnc5ccc(OCCCS(C)(=O)=O)nn45)c3)cc(C(F)(F)F)c2)cn1" is greater than or equal to 60%.
Condition not met
